- Measured on: PTGER2 (EP2) (Homo sapiens (Human), UniProt P43116)
- Sequence (P43116 whole entry): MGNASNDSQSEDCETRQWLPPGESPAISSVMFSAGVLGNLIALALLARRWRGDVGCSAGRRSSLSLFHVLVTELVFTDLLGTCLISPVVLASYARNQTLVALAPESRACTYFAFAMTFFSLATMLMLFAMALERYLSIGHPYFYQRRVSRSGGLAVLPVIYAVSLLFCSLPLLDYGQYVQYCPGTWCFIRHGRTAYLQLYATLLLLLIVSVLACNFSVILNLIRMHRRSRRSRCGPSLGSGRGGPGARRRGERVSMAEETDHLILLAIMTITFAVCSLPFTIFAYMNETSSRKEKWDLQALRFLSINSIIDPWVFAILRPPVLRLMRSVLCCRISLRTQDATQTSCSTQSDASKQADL
- Assay remarks: hEP2 b-arrestin assay (PathHunter HEK 293 PTGER2 b-arrestin cells)
- Assay type: cell-based
- Recorded conditions: antagonistic activity on hEP2; mean where measured multiple times
Endpoint label: log10 IC50 (log10 of the value in nM)
Could you please treat all values as log10 of IC50 in nM?

Query (molecule): CNc1cc(-c2cc(NCCn3c(C)cc4c(C)cc(F)cc43)ncn2)ccc1C(=O)O [compound 209] ; field requested: log10 IC50 0.48

Query (molecule): COc1ccc(F)c2c1cc(C)n2CCNc1cc(-c2ccc(C(=O)O)c([N+](=O)[O-])c2)ncn1 [compound 394] ; field requested: log10 IC50 1.18

Query (molecule): COc1cccc2c1cc(C)n2CCNc1cc(-c2ccc(NC(N)=O)cc2)ncn1 [compound 39] ; field requested: log10 IC50 1.28

Query (molecule): Cc1cc(F)cc2c1cc(C)n2CCNc1cc(-c2ccc(-c3noc(=O)[nH]3)cc2)ncn1 [compound 182] ; field requested: log10 IC50 1.75

Query (molecule): COc1ccc(Cl)c2c1cc(C)n2CCNc1cc(-c2ccc3c(C(=O)O)n[nH]c3c2)ncn1 [compound 388] ; field requested: log10 IC50 1.53

---

- Measured on: UniProt P35408
- Assay remarks: hEP4 cAMP assay (BT549 breast cancer cells, HTRF cAMP)
- Format: cell-based
- Recorded conditions: antagonistic activity; mean values where measured multiple times
Endpoint label: pIC50
Value format note: pIC50 is -log10 of concentration (mol/L); just state the number.

[
  {
    "Compound": "Cc1cnoc1-c1ccc(-c2cc(NCCn3c(C)cc4c(C)cc(F)c(F)c43)ncn2)cc1 [compound 719]",
    "pIC50": 6.41
  },
  {
    "Compound": "CCCc1cc(-c2cc(NCCn3c(C)cc4cc(OC)cc(F)c43)ncn2)ccc1C(=O)O [compound 443]",
    "pIC50": 6.31
  },
  {
    "Compound": "Cc1cc(F)c(F)c2c1cc(C)n2CCNc1cc(-c2cc(C(F)(F)F)c(C(=O)O)s2)ncn1 [compound 420]",
    "pIC50": 7.03
  },
  {
    "Compound": "CCOc1cc(-c2cc(NCCn3c(C)cc4c(OC)cc(F)cc43)nc(C)n2)ccc1C(=O)O [compound 492]",
    "pIC50": 6.20
  },
  {
    "Compound": "CCCc1cc(-c2cc(NCCn3c(C)cc4c(OC)cc(F)cc43)ncn2)cc(Cl)c1C(=O)O [compound 519]",
    "pIC50": 7.47
  },
  {
    "Compound": "COc1ccc(F)c2cc(C)n(CCNc3cc(-c4ccc(C(=O)O)c(CC(C)C)c4)ncn3)c12 [compound 539]",
    "pIC50": 6.02
  },
  {
    "Compound": "COc1ccc(F)c2c1cc(C)n2CCNc1cc(-c2ccc(-c3ccccn3)cc2)ncn1 [compound 590]",
    "pIC50": 6.75
  }
]

Let's switch to this compound now.
Query (compound): COc1ccc(F)c2c1cc(C)n2CCNc1cc(-c2ccc3c(c2)CN(CC(C)C)C3=O)ncn1 [compound 475] ; field requested: pIC50 6.59

---

- Measured on: EP2 (Homo sapiens (Human), UniProt P43116)
- Assay remarks: cell-based
Endpoint label: pIC50
Value format note: pIC50 is -log10 of concentration (mol/L); just state the number.

Example entries and their recorded answers appear below.
[
  {
    "Molecule": "CCCC1NC(=O)c2ccc(-c3cc(NCCn4c(C)cc5c(OC)ccc(F)c54)ncn3)cc21 (racemic)",
    "Numeric result": 7.77
  },
  {
    "Molecule": "CCOc1cc(-c2cc(NCC(C)n3c(C)cc4c(OC)ccc(F)c43)ncn2)ccc1C(=O)O (racemic)",
    "Numeric result": 6.51
  },
  {
    "Molecule": "COc1cccc2c1cc(C)n2CCNc1cc(-c2ccc3c(c2)C(CC(C)C)NC3=O)ncn1 (racemic)",
    "Numeric result": 7.62
  }
]

Query (molecule): COc1ccc(F)c2c1cc(C)n2CCNc1cc(-c2ccc3c(c2)C(CC(C)C)NC3=O)ncn1 (racemic) ; field requested: pIC50 7.66

Query (molecule): CCOc1cc(-c2cc(NCCn3c(C)cc4c(OC)ccc(F)c43)ncn2)ccc1C(O)C(F)(F)F (racemic) ; field requested: pIC50 6.83

Query (molecule): Cc1ccc(F)c2c1cc(C)n2CCNc1cc(-c2ccc3c(c2)C(CC(C)C)NC3=O)ncn1 (racemic) ; field requested: pIC50 7.23

Query (molecule): COc1ccc(F)c2c1cc(C)n2C(C)CNc1cc(-c2ccc(C(=O)O)c(CC(C)C)c2)ncn1 (racemic) ; field requested: pIC50 7.07

---

Listed compounds paired with reported pIC50
- Measured on: PTRGER4 (EP4) (Homo sapiens (Human))
- Sequence (P35408 whole entry, looked up): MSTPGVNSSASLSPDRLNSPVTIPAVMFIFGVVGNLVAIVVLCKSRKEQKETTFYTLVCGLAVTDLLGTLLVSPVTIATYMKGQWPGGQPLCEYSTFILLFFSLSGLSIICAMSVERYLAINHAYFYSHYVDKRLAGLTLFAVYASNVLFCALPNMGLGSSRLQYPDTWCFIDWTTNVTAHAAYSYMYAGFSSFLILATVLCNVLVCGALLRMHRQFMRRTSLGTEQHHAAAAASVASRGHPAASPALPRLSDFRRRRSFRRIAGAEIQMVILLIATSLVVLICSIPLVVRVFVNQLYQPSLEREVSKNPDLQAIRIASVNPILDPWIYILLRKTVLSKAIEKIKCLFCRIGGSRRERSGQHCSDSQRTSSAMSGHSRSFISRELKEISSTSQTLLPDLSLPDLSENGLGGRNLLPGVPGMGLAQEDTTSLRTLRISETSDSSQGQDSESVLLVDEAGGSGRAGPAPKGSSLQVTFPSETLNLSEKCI
- Assay remarks: hEP4 b-arrestin assay (PathHunter HEK 293 PTGER4 b-arrestin cells)
- Type: cell-based
- Recorded conditions: hEP4 b-arrestin assay (values without asterisk)
Value format note: pIC50 is -log10 of concentration (mol/L); just state the number.

Example entries and their recorded answers appear below.
[
  {
    "Compound": "COc1ccc(F)c2c1cc(C#N)n2CCNc1cc(-c2ccc(O)c(OC(F)(F)F)c2)ncn1 [Example 866]",
    "Numeric result": 8.30
  },
  {
    "Compound": "N#Cc1cc2c(Cl)cccc2n1CCNc1cc(-c2cc(F)c(C(=O)O)s2)ncn1 [Example 903]",
    "Numeric result": 7.16
  },
  {
    "Compound": "COc1ccc(F)c2c1cc(C#N)n2CCNc1cc(-c2ccnc(N3CCCCC3)c2)ncn1 [Example 976]",
    "Numeric result": 6.50
  }
]

Entry COc1ccc(F)c2c1cc(C#N)n2CCNc1cc(-c2ccc3c(c2)CNC(=O)N3)ncn1 [Example 970] , system PTRGER4 (EP4) (Homo sapiens (Human)): what pIC50 was measured? 7.57

---

- Measured on: PTRGER4 (EP4) (Homo sapiens (Human))
- Assay remarks: hEP4 b-arrestin assay (PathHunter HEK 293 PTGER4 b-arrestin cells)
- Type: cell-based
- Recorded conditions: antagonistic activity on hEP4; mean where measured multiple times
Endpoint label: pIC50
Value format note: pIC50 is -log10 of concentration (mol/L); just state the number.

[
  {
    "Molecule": "CCCc1cc(-c2cc(NCCn3c(C)cc4cc(C)cc(F)c43)ncn2)ccc1C(=O)O",
    "pIC50": 6.50
  }
]

Query (molecule): "COc1cc(F)cc2c1cc(C)n2CCNc1cc(-c2ccc(-c3ncno3)cc2)ncn1" ; field requested: pIC50 6.77

Query (molecule): "Cc1ccc(F)c2c1cc(C)n2CCNc1cc(-c2ccc(S(=O)(=O)O)cc2)ncn1" ; field requested: pIC50 6.36

Query (molecule): "CC(C)Cc1cc(-c2cc(NCCn3c(C#N)cc4ccccc43)ncn2)ccc1C(=O)O" ; field requested: pIC50 6.64

Query (molecule): "COc1cc(F)c(F)c2c1cc(C)n2CCNc1cc(-c2ccc(-c3ncno3)cc2)ncn1" ; field requested: pIC50 7.09

Query (molecule): "COc1cc(-c2cc(NCCn3c(C)cc4c(C)ccc(F)c43)ncn2)cc(C)c1C(=O)O" ; field requested: pIC50 6.57

Query (molecule): "CCCc1cc(-c2cc(NCCn3c(C)cc4c(F)ccc(Cl)c43)ncn2)cc(Cl)c1C(=O)O" ; field requested: pIC50 6.21

Query (molecule): CCC1NC(=O)c2ccc(-c3cc(NCCn4c(C)cc5c(C)ccc(F)c54)ncn3)cc21 (racemic) ; field requested: pIC50 6.19

Query (molecule): "CNc1cc(-c2cc(NCCn3c(C)cc4c(C)cc(F)cc43)ncn2)ccc1C(=O)O" ; field requested: pIC50 6.91

---

Listed compounds paired with reported pIC50
- Measured on: UniProt:P35408
- Assay remarks: hEP4 b-arrestin assay (PathHunter HEK 293 PTGER4 b-arrestin cells)
- Assay type: cell-based
- Recorded conditions: antagonistic activity on hEP4; mean where measured multiple times
Value format note: pIC50 is -log10 of concentration (mol/L); just state the number.

Example entries and their recorded answers appear below.
[
  {
    "Mol smiles": "COc1cccc2c1cc(C)n2CCNc1cc(-c2ccc(CO)c(F)c2)ncn1",
    "Endpoint label": "pIC50",
    "Numeric result": 6.76
  },
  {
    "Mol smiles": "Cc1cc2cccc(F)c2n1CCNc1cc(-c2ccc(C(=O)O)c(CC(C)C)c2)ncn1",
    "Endpoint label": "pIC50",
    "Numeric result": 6.03
  },
  {
    "Mol smiles": "Cc1ccc(F)c2c1cc(C)n2CCNc1cc(-c2ccc(-n3cccn3)cc2)ncn1",
    "Endpoint label": "pIC50",
    "Numeric result": 6.01
  },
  {
    "Mol smiles": "Cc1cc(F)cc2c1cc(C)n2CCNc1cc(-c2cc(Cl)c(C(=O)O)c(Cl)c2)ncn1",
    "Endpoint label": "pIC50",
    "Numeric result": 6.84
  },
  {
    "Mol smiles": "Cc1cc(F)cc2c1cc(C)n2CCNc1cc(-c2ccc(-c3ccns3)cc2)ncn1",
    "Endpoint label": "pIC50",
    "Numeric result": 6.51
  },
  {
    "Mol smiles": "COc1ccc(Cl)c2c1cc(C)n2CCNc1cc(-c2ccc3c(C(=O)O)n[nH]c3c2)ncn1",
    "Endpoint label": "pIC50",
    "Numeric result": 6.02
  },
  {
    "Mol smiles": "CCOc1cc(-c2cc(NCCn3c(C)cc4c(OC)cccc43)ncn2)ccc1CO",
    "Endpoint label": "pIC50",
    "Numeric result": 6.72
  }
]

Let's switch to this compound now.
Entry "COc1ccc(F)c2c1cc(C)n2CCNc1cc(-c2ccc3c(c2)CCN3)ncn1" , system UniProt:P35408: what pIC50 was measured? 7.23
